Subject of test: Transient receptor potential cation channel subfamily V member 1 (Homo sapiens)
Sequence (Q8NER1 whole entry): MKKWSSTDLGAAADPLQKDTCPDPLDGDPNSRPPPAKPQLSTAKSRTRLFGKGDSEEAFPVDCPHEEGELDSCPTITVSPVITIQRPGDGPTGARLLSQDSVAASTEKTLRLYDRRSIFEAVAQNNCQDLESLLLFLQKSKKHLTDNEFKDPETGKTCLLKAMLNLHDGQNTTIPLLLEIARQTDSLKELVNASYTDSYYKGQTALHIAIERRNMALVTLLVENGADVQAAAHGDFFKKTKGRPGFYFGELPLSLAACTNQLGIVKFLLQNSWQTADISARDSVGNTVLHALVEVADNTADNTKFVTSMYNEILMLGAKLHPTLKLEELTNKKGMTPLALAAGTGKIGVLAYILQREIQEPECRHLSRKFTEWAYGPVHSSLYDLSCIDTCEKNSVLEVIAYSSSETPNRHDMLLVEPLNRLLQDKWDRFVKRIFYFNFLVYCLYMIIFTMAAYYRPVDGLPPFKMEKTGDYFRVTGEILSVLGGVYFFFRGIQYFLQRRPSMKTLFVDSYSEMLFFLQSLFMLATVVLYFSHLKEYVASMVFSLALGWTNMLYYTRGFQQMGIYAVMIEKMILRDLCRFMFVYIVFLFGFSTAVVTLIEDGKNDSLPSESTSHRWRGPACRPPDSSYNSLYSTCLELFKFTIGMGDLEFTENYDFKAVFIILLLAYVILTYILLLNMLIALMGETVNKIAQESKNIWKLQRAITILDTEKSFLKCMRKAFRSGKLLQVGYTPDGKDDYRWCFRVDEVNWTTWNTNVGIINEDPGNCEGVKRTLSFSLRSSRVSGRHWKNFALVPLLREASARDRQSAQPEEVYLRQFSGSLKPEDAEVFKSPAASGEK
Test: Inhibition of acidic pH 5.5-stimulated current in CHO cells expressing human TRPV1 receptor by patch clamp
Assay type: functional, cell-based
Parameter: IC50 (nM)

(A) O=c1c2ccc(-c3ncccc3C(F)(F)F)cc2[nH]n1-c1ccc(C(F)(F)F)cc1
(B) O=C(Nc1ccc(-c2ncccc2C(F)(F)F)cc1)c1ccc(C(F)(F)F)cc1
// query Please indicate which entry, A or B , has the lower recorded IC50 value. Respond using the label that marks the chosen record.
// result A

---

Subject of test: Transient receptor potential cation channel subfamily V member 1 (Rattus norvegicus)
Sequence (O35433 whole entry): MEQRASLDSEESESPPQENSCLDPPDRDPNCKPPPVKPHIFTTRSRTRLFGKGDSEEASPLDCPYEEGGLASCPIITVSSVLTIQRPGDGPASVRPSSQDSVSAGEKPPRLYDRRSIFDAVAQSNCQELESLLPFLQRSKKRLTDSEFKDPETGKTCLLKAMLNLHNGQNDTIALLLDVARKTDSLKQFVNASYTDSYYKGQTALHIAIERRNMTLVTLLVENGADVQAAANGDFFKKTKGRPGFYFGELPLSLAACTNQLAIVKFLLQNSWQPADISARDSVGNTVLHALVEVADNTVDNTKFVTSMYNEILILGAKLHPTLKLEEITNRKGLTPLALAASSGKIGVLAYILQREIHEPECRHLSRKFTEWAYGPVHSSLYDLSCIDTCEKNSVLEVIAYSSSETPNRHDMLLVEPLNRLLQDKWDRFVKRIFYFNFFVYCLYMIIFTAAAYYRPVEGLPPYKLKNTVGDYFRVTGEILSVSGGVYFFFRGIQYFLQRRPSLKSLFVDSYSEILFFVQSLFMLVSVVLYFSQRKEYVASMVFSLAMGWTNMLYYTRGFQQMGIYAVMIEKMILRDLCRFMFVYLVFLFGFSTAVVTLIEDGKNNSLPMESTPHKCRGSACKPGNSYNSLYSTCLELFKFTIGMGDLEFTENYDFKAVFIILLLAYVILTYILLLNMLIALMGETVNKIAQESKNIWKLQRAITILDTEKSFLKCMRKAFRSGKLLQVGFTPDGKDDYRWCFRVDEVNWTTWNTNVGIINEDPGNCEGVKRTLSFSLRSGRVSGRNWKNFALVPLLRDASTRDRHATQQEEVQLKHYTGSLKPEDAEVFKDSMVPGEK
Test: Activity at rat TRPV1 as inhibition of pH 5.5-induced currents in CHO cells
Parameter: IC50 (nM)
All answers are understood in nM, so give the number only.

// query Dear colleague, I am looking for the recorded IC50 of the following molecule: O=c1c2ccc(-c3ncccc3C(F)(F)F)cc2[nH]n1-c1ccc(C(F)(F)F)cc1
// result 65
